test: Cytotoxicity on Sup-T1 cells (MTT); format: cell-based; settings: human, concentration 100 nM, read-out: Percent Viability
REPORTED METRIC: viability at 0.1 µM (%)
Kindly provide the numeric value in % only, without the unit symbol.

* C=C(C)[C@@H]1CC[C@]2(C(=O)O)CC[C@]3(C)C(CC[C@@H]4[C@@]5(C)[C@@H](C(=O)O)[C@H](OC(=O)CC(C)(C)C(=O)O)C(C)(C)[C@@H]5CC[C@]43C)C12 (some centres unmarked) [Example 6] | 82.7

Would you kindly look at the next entry?
viability at 0.1 µM lookup needed for C=C(C)[C@@H]1CC[C@]2(C(=O)O)CC[C@]3(C)[C@H](CC[C@@H]4[C@@]5(C)CC[C@H](OC(=O)[C@@H]6C[C@H](C(=O)O)C6(C)C)C(C)(C)[C@@H]5CC[C@]43C)[C@@H]12 [Example 4] , thanks.
86.8

---

assay: Cytotoxicity on Sup-T1 cells (MTT); format: cell-based; conditions: human, concentration 1 mM, read-out: Percent Viability
REPORTED METRIC: viability at 1 mM (%)
Expressed in %, but write only the number.

Quick one: viability at 1 mM for C=C(C)[C@@H]1CC[C@]2(C(=O)O)CC[C@]3(C)[C@H](CC[C@@H]4[C@@]5(C)CC[C@H](OC(=O)[C@@H]6C[C@H](C(=O)O)C6(C)C)C(C)(C)[C@@H]5CC[C@]43C)[C@@H]12 ?
26.2

Okay, and C=C(C)[C@@H]1CC[C@]2(C(=O)O)CC[C@]3(C)C(CC[C@@H]4[C@@]5(C)[C@@H](C(=O)O)[C@H](OC(=O)CC(C)(C)C(=O)O)C(C)(C)[C@@H]5CC[C@]43C)C12 (some centres unmarked) ?
23.1

---

test system: HIV-1 strain NL4-3; experiment: Anti-HIV-1 luciferase indicator assay in MT2 cells, NL4-3; assay type: cell-based; details: MT2 cells, viral strain NL4-3
Measured TI / Safety Index (CC50/IC50), listed per entry for reference.
A bare number is all that is needed in reply.

* C=C(C)[C@@H]1CC[C@]2(C(=O)N[C@H]3C[C@@H](C(=O)N4CCOCC4)C3(C)C)CC[C@]3(C)[C@H](CC[C@@H]4[C@@]5(C)CC[C@H](OC(=O)CC(C)(C)C(=O)O)C(C)(C)[C@@H]5CC[C@]43C)[C@@H]12 [Example 9] | 3579

Any idea what its TI / Safety Index (CC50/IC50) is? The compound is C=C(C)[C@@H]1CC[C@]2(C(=O)N3CCC(CC)(C(=O)OCC)CC3)CC[C@]3(C)[C@H](CC[C@@H]4[C@@]5(C)CC[C@H](OC(=O)CC(C)(C)C(=O)O)C(C)(C)[C@@H]5CC[C@]43C)[C@@H]12 [Example 74]
47

---

test system: HIV-1 strain 92-HT599; test: Anti HIV-1 p24 assay, strain 92-HT599 in MT2 cells; format: cell-based; settings: Human immunodeficiency virus 1; MT2 cells, HIV-1 92-HT599, p24, concentration 0.1 μM; read-out: Percent inhibition
inhibition at 0.1 µM values for the molecules below.
Value expressed in %; do not type the unit.

Illustrative cases are given below, each with its answer.
• C=C(C)[C@@H]1CC[C@]2(C(=O)N[C@@H]3CC[C@H](CN4CCC(Cc5ccccc5)CC4)C3)CC[C@]3(C)[C@H](CC[C@@H]4[C@@]5(C)CC[C@H](OC(=O)CC(C)(C)C(=O)O)C(C)(C)[C@@H]5CC[C@]43C)[C@@H]12 = 89
• C=C(C)[C@@H]1CC[C@]2(C(=O)N[C@@H]3CC[C@H](CN4CCOCC4)C3)CC[C@]3(C)[C@H](CC[C@@H]4[C@@]5(C)CC[C@H](O)C(C)(C)[C@@H]5CC[C@]43C)[C@@H]12 = 11
• C=C(C)[C@@H]1CC[C@]2(C(=O)N[C@H]3C[C@@H](C(=O)N4CCCC4)C3(C)C)CC[C@]3(C)[C@H](CC[C@@H]4[C@@]5(C)CC[C@H](O)C(C)(C)[C@@H]5CC[C@]43C)[C@@H]12 = 71

Alright, here's another molecule for you.
What does the record list as inhibition at 0.1 µM for C=C(C)[C@@H]1CC[C@]2(C(=O)N[C@@H]3C[C@H](C(=O)N4CCCC4)C3(C)C)CC[C@]3(C)[C@H](CC[C@@H]4[C@@]5(C)CC[C@H](O)C(C)(C)[C@@H]5CC[C@]43C)[C@@H]12 ?
15

---

test system: HIV-1 strain NL4-3; experiment: Anti-HIV-1 luciferase indicator assay in MT2 cells, NL4-3; assay type: cell-based; settings: MT2 cells, viral strain NL4-3
Measured TI / Safety Index (CC50/IC50) accompanies every entry in the list below.

Field: example entries. Status: answers known.
• C=C(C)[C@@H]1CC[C@]2(C(=O)N[C@@H]3CC[C@H](CN4CCN(CC)CC4)C3)CC[C@]3(C)[C@H](CC[C@@H]4[C@@]5(C)CC[C@H](OC(=O)CC(C)(C)C(=O)O)C(C)(C)[C@@H]5CC[C@]43C)[C@@H]12 [Example 36] = 4000
• C=C(C)[C@@H]1CC[C@]2(C(=O)N[C@@H]3CC[C@H](CN4CCC(Cc5ccccc5)CC4)C3)CC[C@]3(C)[C@H](CC[C@@H]4[C@@]5(C)CC[C@H](OC(=O)CCCC(=O)O)C(C)(C)[C@@H]5CC[C@]43C)[C@@H]12 [Example 33] = 2.98
• C=C(C)[C@@H]1CC[C@]2(C(=O)N3CCC(Cc4ccccc4)(C(=O)OCC)CC3)CC[C@]3(C)[C@H](CC[C@@H]4[C@@]5(C)CC[C@H](OC(=O)CC(C)(C)C(=O)O)C(C)(C)[C@@H]5CC[C@]43C)[C@@H]12 [Example 57] = 23

Item C=C(C)[C@@H]1CC[C@]2(C(=O)O)CC[C@]3(C)[C@H](CC[C@@H]4[C@@]5(C)CC[C@H](OC(=O)[C@H]6C[C@@H](C(=O)O)C6(C)C)C(C)(C)[C@@H]5CC[C@]43C)[C@@H]12 [Example 19] has what recorded TI / Safety Index (CC50/IC50)?
277

---

Parameter: viability at 24 h, 1 µM. Scope: all listed entries.
experiment: Cytotoxicity on Molt-4 cells (MTT); type: cell-based; details: human, concentration 1 μM, read-out: Percent Viability

* C=C(C)[C@@H]1CC[C@]2(C(=O)O)CC[C@]3(C)C(CC[C@@H]4[C@@]5(C)[C@@H](C(=O)O)[C@H](OC(=O)CC(C)(C)C(=O)O)C(C)(C)[C@@H]5CC[C@]43C)C12 (some centres unmarked) | 99%

We next turn to a different molecule, shown below.
May I ask what viability at 24 h, 1 µM has been recorded for C=C(C)[C@@H]1CC[C@]2(C(=O)O)CC[C@]3(C)[C@H](CC[C@@H]4[C@@]5(C)CC[C@H](OC(=O)[C@@H]6C[C@H](C(=O)O)C6(C)C)C(C)(C)[C@@H]5CC[C@]43C)[C@@H]12 ?
98.7%
